We begin with a simple list: items and their reported koff.
Measurement target: T1, ZIKV (prM80E) with a C-terminal myc-myc-hexahistidine tag (Zika virus, UniProt A0A024B7W1 104-694)
T1 construct: also called ZIKV (prM80E)-mmH; ZIKV-mmH
Protocol summary: SPR, mAb captured, 37C, pH 6.0 chase
Assay readout: koff (s⁻¹)

>>> meas_value("H4H25598P (antibody, V domains shown) VH: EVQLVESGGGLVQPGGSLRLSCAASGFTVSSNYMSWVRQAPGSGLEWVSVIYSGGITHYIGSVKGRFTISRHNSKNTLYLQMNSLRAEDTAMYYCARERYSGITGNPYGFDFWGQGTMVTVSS VL: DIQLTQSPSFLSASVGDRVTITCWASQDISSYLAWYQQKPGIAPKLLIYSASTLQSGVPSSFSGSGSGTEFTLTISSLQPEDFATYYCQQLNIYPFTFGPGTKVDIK")
0.0129
>>> meas_value("H4H25703N (antibody, V domains shown) VH: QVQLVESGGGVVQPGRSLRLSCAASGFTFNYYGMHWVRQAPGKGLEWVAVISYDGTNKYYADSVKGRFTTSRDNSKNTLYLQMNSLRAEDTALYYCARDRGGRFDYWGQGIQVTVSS VL: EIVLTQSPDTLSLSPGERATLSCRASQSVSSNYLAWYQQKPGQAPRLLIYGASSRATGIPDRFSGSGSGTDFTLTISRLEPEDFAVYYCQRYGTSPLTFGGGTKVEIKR")
0.00283
>>> meas_value("H4H25704N (antibody, V domains shown) VH: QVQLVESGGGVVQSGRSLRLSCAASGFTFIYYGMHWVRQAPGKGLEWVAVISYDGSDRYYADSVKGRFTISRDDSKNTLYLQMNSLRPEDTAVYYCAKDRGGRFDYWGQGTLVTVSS VL: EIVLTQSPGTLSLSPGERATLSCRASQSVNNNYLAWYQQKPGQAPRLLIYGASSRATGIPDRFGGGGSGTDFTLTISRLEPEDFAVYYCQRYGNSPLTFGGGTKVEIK")
0.00131
>>> meas_value("H4H25637P (antibody, V domains shown) VH: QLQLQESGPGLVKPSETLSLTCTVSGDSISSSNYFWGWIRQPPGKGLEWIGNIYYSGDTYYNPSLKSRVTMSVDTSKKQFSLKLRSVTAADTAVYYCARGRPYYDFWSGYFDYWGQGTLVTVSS VL: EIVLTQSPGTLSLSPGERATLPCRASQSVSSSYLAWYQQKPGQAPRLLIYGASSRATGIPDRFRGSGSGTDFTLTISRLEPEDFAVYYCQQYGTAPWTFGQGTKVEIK")
0.00392
>>> meas_value("H4H25566P (antibody, V domains shown) VH: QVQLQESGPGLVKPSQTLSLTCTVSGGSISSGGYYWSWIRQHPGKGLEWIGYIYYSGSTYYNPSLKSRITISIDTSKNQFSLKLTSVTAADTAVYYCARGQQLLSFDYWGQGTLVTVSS VL: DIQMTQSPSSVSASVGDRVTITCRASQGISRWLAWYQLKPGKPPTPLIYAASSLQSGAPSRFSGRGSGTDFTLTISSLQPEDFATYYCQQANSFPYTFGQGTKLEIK")
0.299
>>> meas_value("H4H25619P (antibody, V domains shown) VH: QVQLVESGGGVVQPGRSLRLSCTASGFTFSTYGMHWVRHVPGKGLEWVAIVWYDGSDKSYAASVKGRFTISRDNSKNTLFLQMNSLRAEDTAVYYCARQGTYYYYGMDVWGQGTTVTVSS VL: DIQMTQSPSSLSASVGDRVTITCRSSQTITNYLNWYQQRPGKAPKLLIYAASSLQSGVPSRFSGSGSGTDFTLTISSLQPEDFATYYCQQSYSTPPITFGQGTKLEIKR")
0.00102
>>> meas_value("H4H25641P (antibody, V domains shown) VH: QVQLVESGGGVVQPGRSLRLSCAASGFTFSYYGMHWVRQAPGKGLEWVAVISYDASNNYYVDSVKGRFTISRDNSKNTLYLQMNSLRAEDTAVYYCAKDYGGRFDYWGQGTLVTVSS VL: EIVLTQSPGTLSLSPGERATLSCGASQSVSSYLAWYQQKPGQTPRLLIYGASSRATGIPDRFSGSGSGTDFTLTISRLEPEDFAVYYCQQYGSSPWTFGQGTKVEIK")
0.0159
>>> meas_value("H4H25587P (antibody, V domains shown) VH: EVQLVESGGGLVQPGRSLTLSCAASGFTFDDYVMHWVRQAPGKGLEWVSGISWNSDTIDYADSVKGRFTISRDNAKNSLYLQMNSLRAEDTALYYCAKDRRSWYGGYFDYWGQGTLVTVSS VL: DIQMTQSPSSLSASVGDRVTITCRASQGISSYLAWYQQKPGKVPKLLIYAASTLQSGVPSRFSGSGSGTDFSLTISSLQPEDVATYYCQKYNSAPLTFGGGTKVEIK")
0.0151
>>> meas_value("H4H25640P (antibody, V domains shown) VH: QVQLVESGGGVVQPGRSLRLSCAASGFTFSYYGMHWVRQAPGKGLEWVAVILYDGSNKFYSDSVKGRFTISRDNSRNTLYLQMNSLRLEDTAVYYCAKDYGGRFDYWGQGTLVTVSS VL: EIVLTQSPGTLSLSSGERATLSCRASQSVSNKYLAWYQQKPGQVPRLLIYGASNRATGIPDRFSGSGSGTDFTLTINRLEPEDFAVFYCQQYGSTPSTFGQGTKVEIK")
0.00323
>>> meas_value("H4H25617P (antibody, V domains shown) VH: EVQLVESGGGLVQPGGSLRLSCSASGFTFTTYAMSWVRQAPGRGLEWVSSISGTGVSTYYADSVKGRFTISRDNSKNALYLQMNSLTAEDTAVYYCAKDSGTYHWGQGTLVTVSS VL: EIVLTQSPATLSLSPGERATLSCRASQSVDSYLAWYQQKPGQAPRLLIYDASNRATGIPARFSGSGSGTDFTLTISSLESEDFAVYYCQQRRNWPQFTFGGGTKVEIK")
0.00494
